System: Influenza A virus
Assay: Antiviral activity against Influenza A virus A/WSN/33, H1N1 infected in MDCK cells assessed as decrease in viral replication incubated for 72 hrs
Assay type: functional, organism-based
Details: A/WSN/33, H1N1, MDCK
reported_property: EC50

> print(dat)
                                   compound   target.or.system   result
1  O=C1c2c(O)c(=O)ccn2N(C2c3ccccc3SCc3c2ccc(F)c3F)C[C@H]2CCCN12 (stereo partly specified)  Influenza A virus   421 nM
2  O=C1c2c(O)c(=O)ccn2N([C@H]2c3ccccc3SCc3c2ccc(F)c3F)C[C@H]2CCCN12  Influenza A virus  2880 nM
3  O=C1c2c(O)c(=O)ccn2N([C@@H]2c3ccccc3SCc3c2ccc(F)c3F)C[C@H]2CCCN12  Influenza A virus   134 nM
4  O=C1c2c(O)c(=O)ccn2N([C@@H]2c3ccccc3SCc3c2ccc(F)c3F)[C@@H]2COCCN12  Influenza A virus     1 nM
5  O=C1c2c(O)c(=O)ccn2N(C2c3ccccc3C=Cc3ccccc32)C[C@H]2CCCN12  Influenza A virus   292 nM
6  O=C1c2c(O)c(=O)ccn2N(C2c3ccccc3CCc3ccccc32)C[C@H]2CCCN12  Influenza A virus   724 nM

----------
Assay: Cytotoxicity against MDCK cells assessed as decrease in survival rate
Format: toxicity, cell-based, Canis lupus familiaris
Conditions: dog
Measured CC50, listed per entry.
reported_property: CC50 (µM)

> print(dat)
                                   compound  reported.property  recorded.number
1  O=C1c2c(O)c(=O)ccn2N([C@@H]2c3ccccc3SCc3c2ccc(F)c3F)[C@@H]2COCCN12               CC50             28.8
2  O=C1c2c(O)c(=O)ccn2N(C2c3ccccc3SCc3c2ccc(F)c3F)C[C@H]2CCCN12 (stereo partly specified)               CC50             29.6
3  O=C1c2c(O)c(=O)ccn2N(C2c3ccccc3CCc3ccccc32)C[C@H]2CCCN12               CC50             34.3
4  O=C1c2c(O)c(=O)ccn2N(C2c3ccccc3C=Cc3ccccc32)C[C@H]2CCCN12               CC50             62.9
5  O=C1c2c(O)c(=O)ccn2N([C@H]2c3ccccc3SCc3c2ccc(F)c3F)C[C@H]2CCCN12               CC50             98.5
6  O=C1c2c(O)c(=O)ccn2N([C@@H]2c3ccccc3SCc3c2ccc(F)c3F)C[C@H]2CCCN12               CC50             15.3

----------
Biological target: Polymerase acidic protein (Influenza A virus (A/Puerto Rico/8/1934(H1N1)))
Experiment: Inhibition of Influenza A virus N-terminal Polymerase acidic protein endonuclease activity in HEK293T cells transfected with IAV RNA polymerase complex and firefly/renilla luciferase reporter at 10 uM by […] Dual-Glo luciferase assay relative to control
Type: cell-based
Respond with YES for inhibition values of 50% and above, NO for values below.

> print(dat)
                                   molecule  assigned.label
1  O=C1c2c(O)c(=O)ccn2N(C2c3ccccc3CCc3ccccc32)C[C@H]2CCCN12             YES
2  CSCC[C@H]1CN(C2c3ccccc3CCc3ccccc32)n2ccc(=O)c(O)c2C(=O)N1              NO
3  CSCC[C@@H]1CN(C2c3ccccc3CCc3ccccc32)n2ccc(=O)c(O)c2C(=O)N1             YES
4  O=C1c2c(O)c(=O)ccn2N([C@@H]2c3ccccc3SCc3c2ccc(F)c3F)[C@@H]2COCCN12 [BALOXAVIR]             YES
5  O=C1c2c(O)c(=O)ccn2N(C2c3ccccc3CCc3ccccc32)C[C@@H]2CCCCN12              NO
6  O=C1N[C@H](c2ccccc2)CN(C2c3ccccc3CCc3ccccc32)n2ccc(=O)c(O)c21              NO
7  O=C1c2c(O)c(=O)ccn2N(C(c2ccccc2)c2ccccc2)C[C@H]2CCCN12              NO
8  CC(C)C[C@H]1CN(C2c3ccccc3CCc3ccccc32)n2ccc(=O)c(O)c2C(=O)N1              NO
